Assay: Apparent solubility of AmB in pH-adjusted methanol
Assay type: physicochemical
Settings: 0 °C, pH 4.7, organic solvent or mixture, MeOH, pH 4.7, in ice
Protocol: In an attempt to reduce the extent of chemical degradation of amphotericin, while also finding solution conditions under which amphotericin B was reasonably soluble (e.g., to an extent greater than about 1 mg/mL), solubility experiments were conducted. The experiments were performed at room temperature for the first 2 hour while adjusting for solution pH. After the amphotericin B was completely dissolved, the samples were transferred to a 4° C. refrigerator for further chemical stability analysis. […]
value kind: Solubility (µg/mL)
Kindly provide the numeric value in µg/mL only, without the unit symbol.

[Q] For the molecule shown here, C[C@@H]1[C@H](O)[C@@H](C)/C=C/C=C/C=C/C=C/C=C/C=C/C=C/[C@H](O[C@@H]2O[C@H](C)[C@@H](O)[C@H](N)[C@@H]2O)C[C@@H]2O[C@](O)(C[C@@H](O)C[C@@H](O)[C@H](O)CC[C@@H](O)C[C@@H](O)CC(=O)O[C@H]1C)C[C@H](O)[C@H]2C(=O)O [Amphotericin B] , give the reported Solubility.
[A] 3400
